The measured values listed here are drawn from patent US20120053115A1.

System: Staphylococcus aureus VISA (code 3798)
Settings: S. aureus VISA code 3798; 0.02% albumine bovine serum; read after 24 h
QUANTITY MEASURED: Minimal Inhibitory Concentrations

1) C=CCNC(=O)CC[C@@H]1NC(=O)[C@H](NC(=O)[C@@H](NC(=O)[C@@H]2CS[C@@H](C)[C@@H](NC(=O)[C@@H]3CSC[C@@H](NC(=O)/C(=C/C)NC(=O)[C@@H](N)[C@@H](C)CC)C(=O)N[C@@H](C(C)C)C(=O)NC(=C)C(=O)N[C@@H](Cc4c[nH]c5ccccc45)C(=O)N3)C(=O)N3CCC[C@H]3C(=O)NCC(=O)N2)[C@@H](C)O)CSC[C@@H]2NC(=O)CNC(=O)[C@@H](CSC[C@@H]3NC(=O)[C@H](Cc4c[nH]cn4)NC(=O)[C@@H](CSC[C@@H](C(=O)NCC=C)NC3=O)NC2=O)NC(=O)CNC(=O)CNC(=O)CNC1=O    2 µg/mL

* * *

Tested on: Staphylococcus aureus VISA Met-R (code 3797)
Conditions: S. aureus VISA Met-R code 3797; 0.02% albumine bovine serum; read after 24 h
QUANTITY MEASURED: Minimal Inhibitory Concentrations (µg/mL)

1. C=C1NC(=O)[C@H](C(C)C)NC(=O)[C@H](NC(=O)/C(=C/C)NC(=O)[C@@H](N)[C@@H](C)CC)CSC[C@@H](C(=O)N[C@H]2C(=O)N3CCC[C@H]3C(=O)NCC(=O)N[C@H](C(=O)N[C@H](C(=O)N[C@@H]3CSC[C@@H]4NC(=O)CNC(=O)[C@@H](CSC[C@@H]5NC(=O)[C@H](Cc6c[nH]cn6)NC(=O)[C@@H](CSC[C@@H](C(=O)NCCCN(C)C)NC5=O)NC4=O)NC(=O)CNC(=O)CNC(=O)CNC(=O)[C@H](CCC(=O)NCCCN(C)C)NC3=O)[C@@H](C)O)CS[C@H]2C)NC(=O)[C@H](Cc2c[nH]c3ccccc23)NC1=O    1
2. C=C1NC(=O)[C@H](C(C)C)NC(=O)[C@H](NC(=O)/C(=C/C)NC(=O)[C@@H](N)[C@@H](C)CC)CSC[C@@H](C(=O)N[C@H]2C(=O)N3CCC[C@H]3C(=O)NCC(=O)N[C@H](C(=O)N[C@H](C(=O)N[C@@H]3CSC[C@@H]4NC(=O)CNC(=O)[C@@H](CSC[C@@H]5NC(=O)[C@H](Cc6c[nH]cn6)NC(=O)[C@@H](CSC[C@@H](C(=O)N(C)C)NC5=O)NC4=O)NC(=O)CNC(=O)CNC(=O)CNC(=O)[C@H](CCC(=O)N(C)C)NC3=O)[C@@H](C)O)CS[C@H]2C)NC(=O)[C@H](Cc2c[nH]c3ccccc23)NC1=O    16
3. C=C1NC(=O)[C@H](C(C)C)NC(=O)[C@H](NC(=O)/C(=C/C)NC(=O)[C@@H](N)[C@@H](C)CC)CSC[C@@H](C(=O)N[C@H]2C(=O)N3CCC[C@H]3C(=O)NCC(=O)N[C@H](C(=O)N[C@H](C(=O)N[C@@H]3CSC[C@@H]4NC(=O)CNC(=O)[C@@H](CSC[C@@H]5NC(=O)[C@H](Cc6c[nH]cn6)NC(=O)[C@@H](CSC[C@@H](C(=O)NCCCCN(C)C)NC5=O)NC4=O)NC(=O)CNC(=O)CNC(=O)CNC(=O)[C@H](CCC(=O)NCCCCN(C)C)NC3=O)[C@@H](C)O)CS[C@H]2C)NC(=O)[C@H](Cc2c[nH]c3ccccc23)NC1=O    2
4. C=C1NC(=O)[C@H](C(C)C)NC(=O)[C@H](NC(=O)/C(=C/C)NC(=O)[C@@H](N)[C@@H](C)CC)CSC[C@@H](C(=O)N[C@H]2C(=O)N3CCC[C@H]3C(=O)NCC(=O)N[C@H](C(=O)N[C@H](C(=O)N[C@@H]3CSC[C@@H]4NC(=O)CNC(=O)[C@@H](CSC[C@@H]5NC(=O)[C@H](Cc6c[nH]cn6)NC(=O)[C@@H](CSC[C@@H](C(=O)NCCOC)NC5=O)NC4=O)NC(=O)CNC(=O)CNC(=O)CNC(=O)[C@H](CCC(=O)NCCOC)NC3=O)[C@@H](C)O)CS[C@H]2C)NC(=O)[C@H](Cc2c[nH]c3ccccc23)NC1=O    8
5. C=C1NC(=O)[C@H](C(C)C)NC(=O)[C@H](NC(=O)/C(=C/C)NC(=O)[C@@H](N)[C@@H](C)CC)CSC[C@@H](C(=O)N[C@H]2C(=O)N3CCC[C@H]3C(=O)NCC(=O)N[C@H](C(=O)N[C@H](C(=O)N[C@@H]3CSC[C@@H]4NC(=O)CNC(=O)[C@@H](CSC[C@@H]5NC(=O)[C@H](Cc6c[nH]cn6)NC(=O)[C@@H](CSC[C@@H](C(=O)NCCN(C)C)NC5=O)NC4=O)NC(=O)CNC(=O)CNC(=O)CNC(=O)[C@H](CCC(=O)NCCN(C)C)NC3=O)[C@@H](C)O)CS[C@H]2C)NC(=O)[C@H](Cc2c[nH]c3ccccc23)NC1=O    0.50
